Recorded iScore, one value per entry.
# assayed-system: T1, MHC class I allele A*0101 monomer (human, biotinylated, bound to streptavidin-coated plate)
# T1 construct: placeholder peptide and b2M removed, then reconstituted with test peptide and fresh b2M; also called A1; HLA-A1
# test-protocol: iTopia, multiparametric iScore
// no unit, no text: just the number

binder	iScore
VSLTYVSFR [5T4 9-mer peptide 124]	0

Query :: Requested read-out: iScore. Entry: HLESLHLED (also called HLESLHLED) [5T4 9-mer peptide 130]
Result :: 0

Query :: And for ADPRLTNLS [5T4 9-mer peptide 204] ?
Result :: 0
